Test system: Vero-E6
EXPERIMENTAL_PROTOCOL: primary screen, phospholipidosis by LipidTOX staining; higher = more effect of the substance
ASSAY_CONTEXT: 10 µM
The campaign covered roughly 5,400 compounds. About 190 (3.5%) showed an effect of 50% or more. The sample holds strong results, similar compounds and a random draw of the others, so the mix is not that of the screen.
MEASURED_QUANTITY: result_ITMP (%)
Give just the number in %; leave the unit off.

Challenge: Fill blank: measured result_ITMP of the compound CC(C)Oc1ccc(-c2nc(-c3cccc4c3CCC4NCCC(=O)O)no2)cc1C#N (stereo not shown) is ____.
Response given: -0.21

Further cases:
Challenge: For the compound shown here, `CC[C@H](C)[C@H](NC(=O)[C@H](CCC(=O)O)NC(=O)[C@H](CCC(=O)O)NC(=O)[C@H](Cc1ccccc1)NC(=O)[C@H](CC(=O)O)NC(=O)CNC(=O)[C@H](CC(N)=O)NC(=O)CNC(=O)CNC(=O)CNC(=O)CNC(=O)[C@@H]1CCCN1C(=O)[C@H](CCCNC(=N)N)NC(=O)[C@@H]1CCCN1C(=O)[C@H](N)Cc1ccccc1)C(=O)N1CCC[C@H]1C(=O)N[C@@H](CCC(=O)O)C(=O)N[C@@H](CCC(=O)O)C(=O)N[C@@H](Cc1ccc(O)cc1)C(=O)N[C@@H](CC(C)C)C(=O)O` , give the reported result_ITMP.
Response given: 0.65

Challenge: Requested read-out: result_ITMP. Entry: `CN/C(=N\C#N)NCCSCc1csc(N=C(N)N)n1`
Response given: 2.7

Challenge: Need result_ITMP of `CNC(=O)c1nn(C)c2c1C(C)(C)Cc1cnc(Nc3ccc(N4CCN(C)CC4)cc3)nc1-2` , thanks.
Response given: 54.6

Challenge: Please give the measured result_ITMP for this compound: CSCCC(N)C(=O)O (stereo not shown)
Response given: -3.06

Challenge: Name the recorded result_ITMP for `O=C(O)c1ccc(CN2CCC(CN[C@@H]3C[C@H]3c3ccccc3)CC2)cc1` .
Response given: -1.25

Challenge: Given the compound C[C@]12CCC(=O)C=C1CCC1C2CC[C@@]2(C)C1CC[C@@H]2O (stereo partly shown) , what is its reported result_ITMP?
Response given: 2.46

Challenge: Dear colleague, I am looking for the recorded result_ITMP of the following compound: O=C([O-])CCC/C=C\C[C@@H]1[C@@H](/C=C/[C@@H](O)COc2cccc(Cl)c2)[C@H](O)C[C@@H]1O (racemic)
Response given: -1.06

Challenge: Which result_ITMP is listed for `Cc1c(N(C)CS(=O)(=O)[O-])c(=O)n(-c2ccccc2)n1C` ?
Response given: -4.64

Challenge: Any idea what its result_ITMP is? The compound is `OC[C@@H](O)[C@@H](O)CO`
Response given: -7.96

Challenge: What value of result_ITMP has been recorded for this entry: `C=C1/C(=C\C=C2/CCC[C@]3(C)[C@@H]([C@H](C)/C=C/[C@@H](O)C4CC4)CC[C@@H]23)C[C@@H](O)C[C@@H]1O`
Response given: -1.18

Challenge: result_ITMP lookup needed for `NC[C@@](O)(c1ccc(Cl)cc1)c1ccc(-c2cn[nH]c2)cc1` , thanks.
Response given: 63.1

Challenge: # get_value(readout='result_ITMP', item= `Cn1cnc2nc(O)nc(O)c21` )
Response given: 0.82

Challenge: I am curious: what result_ITMP value has been reported for CCOc1ccc(-c2nc(-c3cccc4c3CCC4NCCO)no2)cc1OCC (stereo not shown) ?
Response given: 108

Challenge: Name the recorded result_ITMP for `CCCCN1CCC(CCC(=O)c2cc(Cl)c(N)cc2OC)CC1` .
Response given: 5.01

Challenge: What value of result_ITMP has been recorded for this entry: CC(C)Cc1ccc(C(C)C(=O)O)cc1 (stereo not shown) [R4A_0001344_001 / SPE_A17655518]
Response given: -3.6

Challenge: Recorded result_ITMP of `O[C@@H]1CO[C@H]2[C@@H]1OC[C@@H]2O` , please.
Response given: -0.79

# credit: paper PMC13083723
